Test: inhibition of 3D7 malaria parasite growth – strain 3D7 (AID 2306);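 note: 0% = DMSO wells and 100% = chloroquine plus artemisinin control wells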
Conditions: P. falciparum 3D7 erythrocytic growth, LDH absorbance, 72 h; at 2 µM; active compounds read high
OBSERVABLE: growth inhibition (%)
Note: unit % is implicit; provide only the numeric part.

Task item: Answer with reported growth inhibition of O=C(Nc1nc(-c2ccccn2)cs1)c1ccc(Br)s1
Reply: 96

Task item: Answer with reported growth inhibition of Cc1ccccc1Oc1nc2ccccc2nc1SCC(=O)NC(C)C
Reply: 97

Task item: Answer with reported growth inhibition of COc1cccc2c(NN=Cc3ccc(Cl)cc3)ccnc12
Reply: 99

Task item: Answer with reported growth inhibition of CC(C)CN1CCCN(Cc2cccc(NC(=O)c3cc4ccccc4s3)c2)CC1
Reply: 87

Task item: Answer with reported growth inhibition of O=C(Nc1cccc(-c2cccc(-c3nc4ccc(F)cc4[nH]3)c2)c1)c1ccoc1
Reply: 98

Task item: Answer with reported growth inhibition of CC1(C)N=C(N)N=C(N)N1OCCc1ccccc1
Reply: 96

Task item: Answer with reported growth inhibition of COc1cc(NC(=O)/C=C/c2ccc(-c3ccccc3)cc2)ccc1OCCN(C(C)C)C(C)C
Reply: 94

Task item: Answer with reported growth inhibition of Nc1ccnc(N2CCC(CCOc3ccnc4cc(Cl)ccc34)CC2)c1
Reply: 100

Task item: Answer with reported growth inhibition of C[C@H](Cc1ccc(Oc2ccc(C[C@@H](C)NC[C@H](O)c3cccc(Cl)c3)cc2)cc1)NC[C@H](O)c1cccc(Cl)c1
Reply: 100

Task item: Answer with reported growth inhibition of CCc1ccc(NC(=O)c2cccc(CN3CCCN(Cc4ccc(OC)cc4)CC3)c2)cc1
Reply: 97

Task item: Answer with reported growth inhibition of O=C(Nc1cccc(C(F)(F)F)c1)NC1CCN(c2ccnc3ccccc23)CC1
Reply: 101
